- EXPERIMENTAL TARGET: Quinolone resistance protein NorA (Staphylococcus aureus)
- PROCEDURE DETAILS: Inhibition of NorA efflux pump in wild type Staphylococcus aureus 8325-4 assessed as drug level required for two fold potentiation of berberine MIC at 1.56 to 100 ug/mL after 20 hrs by serial dilution method
Criterion: MIC strictly less than 50 µM. Met: true. Not met: false.

{"COMPOUND": "COC(=O)c1ccccc1-c1cc2cc([N+](=O)[O-])ccc2[nH]1", "CLASS ASSIGNMENT": "true"}
{"COMPOUND": "O=[N+]([O-])c1ccc2[nH]c(-c3ccccc3CO)cc2c1", "CLASS ASSIGNMENT": "true"}
{"COMPOUND": "c1ccc(-c2cc3ccccc3[nH]2)cc1 [2-PHENYL-1H-INDOLE]", "CLASS ASSIGNMENT": "false"}
{"COMPOUND": "OCc1ccc(-c2cc3ccccc3[nH]2)cc1", "CLASS ASSIGNMENT": "true"}
{"COMPOUND": "COC(=O)c1cccc(-c2cc3ccccc3[nH]2)c1", "CLASS ASSIGNMENT": "true"}
{"COMPOUND": "O=[N+]([O-])c1ccc2[nH]c(-c3ccccc3)cc2c1", "CLASS ASSIGNMENT": "true"}
